Provide the reported selectivity ratio of each item.
experiment: Therapeutic index, ratio of GI50 for BHK15 cells to EC50 for Yellow fever virus 17D; assay type: cell-based; conditions: hamster, read-out: TI

Consider the compound shown here: CSC(=O)c1sc(-c2ccc(Cl)cc2)nc1C(Br)Br What is its recorded selectivity ratio?
256

Consider the compound shown here: COC(=O)c1sc(-c2ccc(Cl)cc2)nc1C(Br)Br What is its recorded selectivity ratio?
79

---

test system: Yellow fever virus; test: Antiviral activity against Yellow fever virus 17D expressing IRES-luciferase gene infected in BHK cells assessed as inhibition of viral production after 36 hrs by luciferase reporter assay relative to control; format: functional
Provide the reported inhibition (INH) of each item.
Provide only the numeric value, understood in %.

Consider the molecule shown here: CCN(CC)C(=O)c1sc(-c2ccc(Cl)cc2)nc1C(Br)Br What is its recorded inhibition (INH)?
99.8

Consider the molecule shown here: C=CCNC(=O)c1sc(-c2ccc(Cl)cc2)nc1C(Br)Br What is its recorded inhibition (INH)?
99.9

Consider the molecule shown here: CNC(=O)c1sc(-c2ccc(Cl)cc2)nc1COC What is its recorded inhibition (INH)?
99.7

Consider the molecule shown here: CONC(=O)c1sc(-c2ccc(Cl)cc2)nc1C(Br)Br What is its recorded inhibition (INH)?
93.6

Consider the molecule shown here: CCNC(=O)c1sc(-c2ccc(Cl)cc2)nc1C(Br)Br What is its recorded inhibition (INH)?
99.9

Consider the molecule shown here: CNC(=O)c1sc(-c2ccc(Cl)cc2)nc1C=O What is its recorded inhibition (INH)?
37.5

Consider the molecule shown here: CN(C)C(=O)c1sc(-c2ccc(Cl)cc2)nc1C=O What is its recorded inhibition (INH)?
5.5

Consider the molecule shown here: COC(=O)c1sc(-c2ccc(Cl)cc2)nc1C=O What is its recorded inhibition (INH)?
99.9

Consider the molecule shown here: CN(C)C(=O)c1sc(-c2ccc(Cl)cc2)nc1C(Br)Br What is its recorded inhibition (INH)?
93.2

Consider the molecule shown here: COC(=O)c1sc(-c2ccc(Cl)cc2)nc1C(Cl)Cl What is its recorded inhibition (INH)?
99.9

Consider the molecule shown here: COCc1nc(-c2ccc(Cl)cc2)sc1C(=O)OC What is its recorded inhibition (INH)?
38.1

Consider the molecule shown here: CNC(=O)c1sc(-c2ccc(Cl)cc2)nc1C(Br)Br What is its recorded inhibition (INH)?
99.7

Consider the molecule shown here: NC(=O)c1sc(-c2ccc(Cl)cc2)nc1C(Br)Br What is its recorded inhibition (INH)?
99.8

Consider the molecule shown here: COC(=O)c1sc(-c2ccc(Cl)cc2)nc1C(C)C What is its recorded inhibition (INH)?
14.7

Consider the molecule shown here: COC(=O)c1sc(-c2ccc(Cl)cc2)nc1C(Br)Br What is its recorded inhibition (INH)?
99.6

Consider the molecule shown here: CSC(=O)c1sc(-c2ccc(Cl)cc2)nc1C(Br)Br What is its recorded inhibition (INH)?
99.6

Consider the molecule shown here: CCOC(=O)c1sc(-c2ccc(Cl)cc2)nc1C(Br)Br What is its recorded inhibition (INH)?
98.1

Consider the molecule shown here: CC(C)OC(=O)c1sc(-c2ccc(Cl)cc2)nc1C(Br)Br What is its recorded inhibition (INH)?
84.4

Consider the molecule shown here: CCc1nc(-c2ccc(Cl)cc2)sc1C(=O)OC What is its recorded inhibition (INH)?
-56.7
